target: Bromodomain adjacent to zinc finger domain protein 2B (Homo sapiens) (UniProt Q9UIF8); experiment: qHTS Assay for Inhibitors of BAZ2B; conditions: AlphaScreen BAZ2B-H3K14Ac peptide displacement; series mostly up to 114 µM; further: nearly all actives have a fitted effect of over 60% in size
Sequence (Q9UIF8 whole entry, looked up, the tested form may be a part): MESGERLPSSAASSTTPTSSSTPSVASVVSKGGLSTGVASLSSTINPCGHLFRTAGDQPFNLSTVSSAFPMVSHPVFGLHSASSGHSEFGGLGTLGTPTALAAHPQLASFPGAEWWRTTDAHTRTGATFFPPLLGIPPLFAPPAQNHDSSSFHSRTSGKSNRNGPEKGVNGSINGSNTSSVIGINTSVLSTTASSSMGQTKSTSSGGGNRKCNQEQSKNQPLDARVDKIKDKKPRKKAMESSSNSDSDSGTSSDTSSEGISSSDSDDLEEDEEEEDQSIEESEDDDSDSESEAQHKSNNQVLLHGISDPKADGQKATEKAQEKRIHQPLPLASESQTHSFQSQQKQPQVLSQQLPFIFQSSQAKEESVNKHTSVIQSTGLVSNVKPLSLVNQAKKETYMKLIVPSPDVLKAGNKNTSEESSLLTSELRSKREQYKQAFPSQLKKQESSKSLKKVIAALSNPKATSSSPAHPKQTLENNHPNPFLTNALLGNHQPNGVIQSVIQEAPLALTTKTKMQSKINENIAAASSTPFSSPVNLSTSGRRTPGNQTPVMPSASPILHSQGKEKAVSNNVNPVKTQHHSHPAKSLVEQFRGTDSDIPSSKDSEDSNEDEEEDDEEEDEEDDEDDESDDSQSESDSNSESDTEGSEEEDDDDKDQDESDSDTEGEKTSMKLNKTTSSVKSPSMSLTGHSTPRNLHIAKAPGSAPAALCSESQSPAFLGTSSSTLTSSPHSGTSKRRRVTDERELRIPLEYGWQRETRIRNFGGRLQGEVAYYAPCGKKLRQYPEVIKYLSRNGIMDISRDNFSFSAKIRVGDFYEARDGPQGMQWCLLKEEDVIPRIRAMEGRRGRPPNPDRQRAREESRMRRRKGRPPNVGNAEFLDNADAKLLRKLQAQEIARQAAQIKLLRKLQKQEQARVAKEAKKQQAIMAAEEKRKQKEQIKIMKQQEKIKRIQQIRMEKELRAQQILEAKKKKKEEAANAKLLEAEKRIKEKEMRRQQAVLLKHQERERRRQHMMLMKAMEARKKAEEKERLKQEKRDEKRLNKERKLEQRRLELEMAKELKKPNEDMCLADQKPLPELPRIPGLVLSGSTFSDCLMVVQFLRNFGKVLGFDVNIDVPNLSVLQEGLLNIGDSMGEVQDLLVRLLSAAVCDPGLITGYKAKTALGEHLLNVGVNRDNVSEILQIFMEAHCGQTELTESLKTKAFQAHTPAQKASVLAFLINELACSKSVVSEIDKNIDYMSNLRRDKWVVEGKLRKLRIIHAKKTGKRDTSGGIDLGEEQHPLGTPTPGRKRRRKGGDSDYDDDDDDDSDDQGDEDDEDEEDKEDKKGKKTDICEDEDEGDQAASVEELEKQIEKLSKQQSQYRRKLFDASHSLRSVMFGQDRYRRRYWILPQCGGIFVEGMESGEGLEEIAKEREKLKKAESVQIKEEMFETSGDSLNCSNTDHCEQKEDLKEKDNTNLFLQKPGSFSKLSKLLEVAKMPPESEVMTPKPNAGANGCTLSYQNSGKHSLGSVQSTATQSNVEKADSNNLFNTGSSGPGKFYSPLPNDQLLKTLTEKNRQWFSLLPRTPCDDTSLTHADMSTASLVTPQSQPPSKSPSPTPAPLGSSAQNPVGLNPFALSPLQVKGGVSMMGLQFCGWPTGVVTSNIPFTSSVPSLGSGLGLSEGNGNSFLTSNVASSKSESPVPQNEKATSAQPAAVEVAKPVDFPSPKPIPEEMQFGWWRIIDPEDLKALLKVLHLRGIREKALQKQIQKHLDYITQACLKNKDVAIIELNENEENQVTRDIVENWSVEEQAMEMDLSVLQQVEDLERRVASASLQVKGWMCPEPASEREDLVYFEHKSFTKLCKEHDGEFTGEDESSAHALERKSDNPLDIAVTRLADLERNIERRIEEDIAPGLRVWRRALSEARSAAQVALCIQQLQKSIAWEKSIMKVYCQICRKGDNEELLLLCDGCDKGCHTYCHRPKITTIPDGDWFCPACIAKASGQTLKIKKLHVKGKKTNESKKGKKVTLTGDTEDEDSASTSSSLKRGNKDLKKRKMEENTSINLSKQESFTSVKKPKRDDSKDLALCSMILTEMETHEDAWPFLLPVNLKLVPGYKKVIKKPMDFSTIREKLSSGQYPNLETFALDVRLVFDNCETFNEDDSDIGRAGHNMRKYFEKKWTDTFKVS
About 16,000 (4.4%) of roughly 360,000 compounds were called active. About 9% were inconclusive and are not listed. The call rests on the fitted dose curve; in most records, active means well fitted inhibition curve with a large enough effect; inconclusive means small, poorly fitted or top-dose-only effect; inactive means no such curve, though single readings can be large or run the other way. This excerpt belongs to a sample that is enriched for actives.
Classes used: True for active, False for inactive

| molecule | classification |
| --- | --- |
| COc1ccc(NC(=O)CSc2nc(C)cs2)cc1 | False |
| CC(=O)N1CCN(c2ccc(NCc3ccc(C(C)C)cc3)cc2)CC1 | True |
| CC(=O)Nc1cccc(-c2csc(Nc3cccc(C)n3)n2)c1 | False |
| Oc1c(CN2CCN(c3ccc(F)cc3)CC2)cc(Cl)c2cccnc12 | True |
| NS(=O)(=O)c1cccc(NC(=O)CN2CCCc3ccccc32)c1 | False |
| O=C(Nc1ccc(F)cc1)N1CCN(c2ccc(F)cc2)CC1 | False |
| Cc1ccc(NC(=O)CSc2nc3c([nH]c4ccccc43)c(=O)n2-c2ccccc2)c(C)c1 | False |
| Cc1cc(C(=O)N/N=C/c2ccc(O)c([N+](=O)[O-])c2)c(C)n1-c1ccc(F)cc1 | True |
| COc1ccc(Br)cc1CNC(=O)c1cc(=O)[nH]c2ccc(S(=O)(=O)N3CCCC3)cc12 | False |
| CCOc1ccc(S(=O)(=O)c2cn(Cc3ccc(OC)cc3)c3ccc(F)cc3c2=O)cc1 | False |
| Cc1ccc(Cl)cc1NC(=O)CSc1nc2ccccc2nc1Cc1ccccc1 | False |
| CC1CC(C)CN(CC(=O)Nc2ccc(S(N)(=O)=O)cc2)C1 (centres undefined) | False |
| O=C(OCN1C(=O)c2ccccc2C1=O)/C(=C\c1ccco1)NC(=O)c1ccccc1 | False |
| CCOC(=O)C1CCN(c2ncnc3c2c(-c2ccccc2)cn3-c2cccc(C)c2)CC1 | False |
| Cc1nn2c(=O)cc(COC(=O)CNC(=O)c3ccc(F)cc3)nc2s1 | False |
| CN1C(=O)/C(=C/c2ccco2)SC1=Nc1cccc(C(=O)O)c1 | True |
| COc1ccc(C)cc1N(CC(=O)N1CCC(C)CC1)S(=O)(=O)c1ccc(C)cc1 | False |
| Cc1cc(C(=O)OCC(=O)NCc2ccco2)c(C)n1-c1ccccc1 | False |
| Cc1cc(C)c2nc(-c3ccco3)cc(C(=O)O)c2c1 | True |
| COc1cccc(C(=O)Nc2ccc3oc(-c4ccc5ccccc5c4)nc3c2)c1 | False |
| O=C(CN1CCN(c2ccc(F)cc2)CC1)Nc1ccccc1 | False |
| Fc1ccc(-c2ccc(CNCc3ccccn3)o2)cc1Cl | True |
| Nc1ccc(C(=O)NCc2ccccc2)cc1 | False |
| Cc1ccc(Cl)cc1N1CCN(S(=O)(=O)c2cc3[nH]c(=O)c(=O)[nH]c3cc2C)CC1 | False |
| CCOc1ccc(NC(=O)c2ncoc2-c2ccco2)cc1 | False |
| O=c1ccnc(Nc2ccc(Cl)cc2)[nH]1 | False |
| O=C(O)c1cccc(N=NN2CCCCCC2)c1 | False |
| CN=C1S/C(=C\c2c(OC)cc(OC)cc2OC)C(=O)N1C | False |
| COC(=O)c1ccccc1NC(=O)c1cnn(-c2ccc(F)cc2)c1-n1cccc1 | False |
| CCC(CC)C(=O)N1CCc2cc(OC)c(OC)cc2C1COc1ccc(F)cc1 (centres undefined) | False |
| COc1cccc(S(=O)(=O)NCc2ccc(C(=O)NCc3ccccn3)cc2)c1 | False |
| Cc1n[nH]c(=O)n1-c1ccc(Oc2ccccc2)cc1 | False |
| CCc1ccc(N(CC)C(=O)CCn2cnc3onc(-c4ccc(F)cc4)c3c2=O)cc1 | False |
| CCOC(=O)c1cc(-c2ccc(OC)c(S(=O)(=O)Nc3ccc(OC)cc3OC)c2)on1 | False |
| Cc1csc(Nc2ccc(Cl)cc2)[n+]1-c1ccc(Cl)cc1 | True |
| O=C(NCc1ccccn1)c1ccc2nc(-c3ccco3)c(-c3ccco3)nc2c1 | True |
| CCN(CC)S(=O)(=O)c1ccc(C(=O)N=c2sc3cccc(OC)c3n2C)cc1 | False |
| Cc1ccc(-c2nc3ccccn3c2Nc2c(C)cccc2C)o1 | True |
| O=C(/C=C/c1ccco1)NC(=S)Nc1ccccc1Br | False |
| O=C(c1cc(-c2ccco2)nc2ccccc12)N(Cc1nnc(-c2ccc(Cl)cc2)o1)C1CC1 | False |
| Cc1cc(Cl)ccc1OCCCC(=O)NCc1ccccn1 | False |
| Cc1nc2ccccn2c(=O)c1NC(=O)c1c(F)cccc1F | False |
| Cc1oc2ncnc(N3CCCCC3)c2c1C(=O)N1CCN(c2cccc(Cl)c2)CC1 | False |
| Cc1cc(-c2csc(N)n2)c(C)n1-c1ccccc1 | True |

---

target: Bromodomain adjacent to zinc finger domain protein 2B (Homo sapiens); experiment: qHTS Assay for Inhibitors of BAZ2B; conditions: AlphaScreen BAZ2B-H3K14Ac peptide displacement; series mostly up to 114 µM; further: nearly all actives have a fitted effect of over 60% in size
About 16,000 (4.4%) of roughly 360,000 compounds were called active. Inconclusive results (about 9%) are left out. Calls come from the whole dose curve; as a rule, active = well fitted inhibition curve with a large enough effect; inconclusive = small, poorly fitted or top-dose-only effect; inactive = no such curve, though single readings can be large or run the other way. The list comes from a sample in which actives are over-represented; it also holds close analogues and randomly drawn compounds.
Classes used: y (active), n (inactive)

| compound | classification |
| --- | --- |
| Cc1cc(C)cc(NC(c2nnc(-c3cccc(F)c3)o2)c2ccc(F)cc2Cl)c1 (stereo not drawn) | n |
| C/C(=N\NC(=O)c1ccccc1F)c1ccccn1 | y |
| CC1CCCCC1NC(=O)CSc1nnc(-c2ccncc2)n1CCCN(C)C (stereo not drawn) | y |
| O=C(COc1ccc(Cl)cc1)N(Cc1ccco1)Cc1ccco1 | n |
| CCc1ccccc1NC(=O)N1CCN(C(=O)c2nsc3ccccc23)CC1 | n |
| CCCN(CCC)C(=O)C(Cc1ccccc1)NS(=O)(=O)c1ccc2c(c1)c(=O)n(C)c(=O)n2C (stereo not drawn) | n |
| Cc1ccc(F)cc1NC(=O)CCSc1nc(-c2ccco2)cc(C(F)(F)F)n1 | n |
| COc1ccccc1OCc1nc2ccccc2s1 | n |
| O=C(CC(c1cccs1)N1Cc2ccccc2C1=O)Nc1ccc(F)cc1F (stereo not drawn) | n |
| CCc1ccc(Sc2cc(C(=O)NCCCOC(C)C)c3ccccc3n2)cc1 | n |
| CCOC(=O)C1CCN(c2ccc(C(=O)O)cc2[N+](=O)[O-])CC1 | n |
| CCN(CCCNC(=O)c1cc2cc3cc(OC)ccc3nc2s1)c1ccccc1 | n |
| CCCCCn1c(CCCNC(=O)c2ccccc2OC)nc2ccccc21 | n |
| Cc1cc(N=Nc2ccc3ccccc3c2)ccc1O | y |
| COc1cccc2sc(NNC(=O)c3nc4ccccc4s3)nc12 | y |
| C/C(=N\NC(=O)Cc1ccc(Br)cc1)c1cccnc1 | n |
| C/C(=N\NC(=O)Cc1ccc(Cl)cc1)c1ccccn1 | y |
| COCCNC(=O)c1ccc2c(c1)N(Cc1cccc(Cl)c1)C(=O)c1ccccc1S2(=O)=O | n |
| O=C(Nc1ccc(NC(=O)c2ccccc2F)cc1)c1ccccc1F | n |
| CCn1c(SCC(=O)Nc2ccc3c(c2)OCCO3)nnc1-c1ccncc1 | n |
| CN(C)CCCn1c(SCc2ccc(Cl)cc2)nnc1-c1ccncc1 | y |
| Cc1ccc(/C=N/NC(=O)c2cc3ccccc3cc2O)o1 | n |
| CCn1c(SCC(=O)NC2CC2)nnc1-c1ccncc1 | n |

---

target: Bromodomain adjacent to zinc finger domain protein 2B (Homo sapiens) (UniProt Q9UIF8); assay: qHTS Assay for Inhibitors of BAZ2B; conditions: AlphaScreen BAZ2B-H3K14Ac peptide displacement; series mostly up to 114 µM; further: nearly all actives have a fitted effect of over 60% in size
Hit rate of the full screen: of about 360,000 compounds, about 16,000 (4.4%) were called active. Roughly 9% stayed inconclusive and do not appear here. Calls follow the shape of the dose curve; as a rule, active = well fitted inhibition curve with a large enough effect; inconclusive = small, poorly fitted or top-dose-only effect; inactive = no such curve, though single readings can be large or run the other way. The sample as a whole holds a higher share of actives than the screen did.
Classes used: active, inactive

| molecule | classification |
| --- | --- |
| CN1C(=O)c2[nH]nc(-c3ccc(F)cc3)c2C1c1ccccn1 (stereo unspecified) | inactive |
| COc1ccccc1CNCc1cccs1 | inactive |
| Cc1ccn2c(=O)nc(SCC(=O)NCc3ccc4c(c3)OCO4)nc2c1 | active |
| COc1ccccc1CN1CCN(C(c2ccccc2)c2ccccc2)CC1 | active |
| Cc1ccccc1CSc1nnc(-c2ccccn2)n1N | active |
| O=C(NCc1ccc(Cl)cc1)c1cc2c(nc3sccn32)s1 | inactive |

---

biological target: Bromodomain adjacent to zinc finger domain protein 2B (Homo sapiens); assay: qHTS Assay for Inhibitors of BAZ2B; conditions: AlphaScreen BAZ2B-H3K14Ac peptide displacement; series mostly up to 114 µM; further: nearly all actives have a fitted effect of over 60% in size
In all, about 360,000 compounds went through this assay and about 16,000 (4.4%) were called active. Roughly 9% stayed inconclusive and do not appear here. Calls follow the shape of the dose curve; as a rule, active = well fitted inhibition curve with a large enough effect; inconclusive = small, poorly fitted or top-dose-only effect; inactive = no such curve, though single readings can be large or run the other way. Many of the other results were omitted from the sample, so actives are more common in it than they were.
Classes used: 1 = active, 0 = inactive

| compound | classification |
| --- | --- |
| COC(=O)[C@H]1[C@H]2C[C@H]3c4[nH]c5ccccc5c4CCN3C[C@@H]2CC[C@@H]1O | 0 |
| CCOC(=O)C1CCN(C(c2ccc(F)cc2)c2sc3nc(-c4ccco4)nn3c2O)CC1 (stereo not given) | 0 |
| COCc1ccc(CN2CCC(Oc3ccc(C(=O)NCc4ccccn4)cc3)CC2)o1 | 0 |
| COCc1ccc(C(=O)N2CCc3c([nH]c4ccccc34)C2c2ccccn2)s1 (stereo not given) | 1 |
| c1ccc(COc2ccccc2CNCc2cccnc2)cc1 | 0 |
| N#Cc1nc(COc2ccc(-c3ccccc3)cc2)oc1NCc1cccnc1 | 1 |
| O=C(CSc1nc(=O)[nH]c2c1CCCC2)Nc1cc(C(F)(F)F)ccc1Cl | 0 |
| CCOc1ccccc1NC(=O)Cn1c(=O)n(Cc2ccco2)c(=O)c2sc3ccccc3c21 | 0 |
| NC(=O)CCN1CCN(S(=O)(=O)/C=C/c2ccccc2)CC1 | 0 |
| Cc1ccc(N(CC(=O)NCC(C)c2ccccc2)S(=O)(=O)N(C)C)cc1 (stereo not given) | 0 |
